Target: T1, 4H908-bH
T1 chain: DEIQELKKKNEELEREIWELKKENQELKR
Assay: two-hybrid library CCNG1;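 also: natural log of median RNA to DNA barcode read ratio; higher means stronger binding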
Rule: interaction score below -0.5 gives MET, anything at or above gives NOT MET.

Task: State whether -0.5 exceeds interaction score recorded for DEIQELKKKIEELKRKNWELEKENQELER [4H883-bH] .
Output: NOT MET

Task: State whether -0.5 exceeds interaction score recorded for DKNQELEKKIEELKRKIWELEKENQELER [4H3427-bH] .
Output: MET

Task: State whether -0.5 exceeds interaction score recorded for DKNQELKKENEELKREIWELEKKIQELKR [4H3782-bH] .
Output: MET

Task: State whether -0.5 exceeds interaction score recorded for DEIQELKKKNEELEREIWELKKENQELKR [4H908-bH] .
Output: NOT MET

Task: State whether -0.5 exceeds interaction score recorded for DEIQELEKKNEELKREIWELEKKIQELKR [4H454-bH] .
Output: MET

Task: State whether -0.5 exceeds interaction score recorded for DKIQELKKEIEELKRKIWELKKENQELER [4H2667-bH] .
Output: MET

Task: State whether -0.5 exceeds interaction score recorded for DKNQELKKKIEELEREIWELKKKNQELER [4H3855-bH] .
Output: MET
